Values compiled from patent US20030059769.

target: P-selectin (PS-Rg) (Homo sapiens, UniProt P16109 P16109:42-321); assay: filter; HSMC; settings: tags: human IgG Fc fusion; chain copies: 2 (stated dimer); label: fluorescein (inferred)
Sequence (P16109 42-321, one chain of several): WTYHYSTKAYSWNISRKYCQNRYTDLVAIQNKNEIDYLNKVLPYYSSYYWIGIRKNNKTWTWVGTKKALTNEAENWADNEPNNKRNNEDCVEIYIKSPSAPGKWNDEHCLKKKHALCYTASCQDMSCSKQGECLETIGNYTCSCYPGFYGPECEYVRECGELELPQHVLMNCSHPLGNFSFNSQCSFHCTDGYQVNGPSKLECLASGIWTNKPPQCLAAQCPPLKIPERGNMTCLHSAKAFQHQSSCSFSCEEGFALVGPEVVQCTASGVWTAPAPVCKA
READOUT_TYPE: pKd
Please note pKd is a logarithmic value: minus log10 of concentration in mol/L. Answer with that number alone.

Please give the measured pKd for this binder: CUCAACGAGCCAGGAACAUCGACGUCAGCAAACGCGAG (ssRNA, 2'-F C and U) [PF377s1F] 10.22
